// provenance: patent US20250340538A1

Target: DYRK1A (Homo sapiens, UniProt Q13627)
Construct: GST-fusion or His-tag (not specified per kinase); purchased ProQinase GmbH; host or cells: Sf9 insect cells or E. coli (not specified per kinase)
Test: Radiometric protein kinase assay (33PanQinase Activity Assay), DYRK1A
Format: biochemical
Settings: class by IC50 on DYRK1A, from dose-response curves; read-out: Potency Class DYRK1A
pIC50: −log10 of the molar value.
Field: pIC50. Provide a value for each of the compounds that follow.

Prompt line: Quickly give me recorded pIC50 for Cc1cnc(CNC2=N/C(=C\c3ccc4nccnc4c3)C(=O)N2)cn1 [Compound 30]
Response line: < 7.30

Prompt line: # return recorded pIC50 for entry O=C1NC(NC2CCCCCC2)=N/C1=C\c1ccc2ncccc2c1 [Compound 44]
Response line: < 7.30

Prompt line: Provide measured pIC50 value, entry: CN1C(=O)/C(=C/c2ccc3nccnc3c2)N=C1NC1CCCCC1 [Compound 82]
Response line: < 7.30

Prompt line: Note down pIC50 recorded for O=C1NC(N[C@@H]2CCCOC2)=N/C1=C\c1ccc2nccnc2c1 [Compound 39]
Response line: 7.30 to 7.60

Prompt line: Give pIC50 for the following compound: Cn1ccc(NC2=N/C(=C\c3ccc4nccnc4c3)C(=O)N2)n1 [Compound 34]
Response line: < 7.30

Prompt line: Answer with the recorded pIC50 for the compound listed here: CC(C)C[C@H](COCc1ccccc1)NC1=N/C(=C\c2ccc3nccnc3c2)C(=O)N1 [Compound 12]
Response line: < 7.30

Prompt line: Find the measured pIC50 of Cc1cnc(CNC2=N/C(=C\c3ccc4cnccc4c3)C(=O)N2)cn1 [Compound 64] and report it.
Response line: < 7.30

Prompt line: For the compound COC[C@H](NC1=N/C(=C\c2ccc3ncccc3c2)C(=O)N1)c1ccccc1 [Compound 52] , report pIC50.
Response line: < 7.30

Prompt line: Specify reported pIC50 for the compound shown: O=C1NC(NC23CC4CC(CC(C4)C2)C3)=N/C1=C\c1ccc2ncncc2c1 [Compound 68]
Response line: < 7.30

Prompt line: Input COC[C@H](NC1=N/C(=C\c2ccc3cnccc3c2)C(=O)N1)c1ccccc1 [Compound 63] , output reported pIC50.
Response line: < 7.30

Prompt line: Tell us which pIC50 value is on record for O=C1NC(NC23CC4CC(CC(C4)C2)C3)=N/C1=C\c1ccc2cnccc2c1 [Compound 61]
Response line: 7.30 to 7.60

Prompt line: Specify measured pIC50 for O=C1NC(NCc2ccccc2C(F)(F)F)=N/C1=C\c1ccc2nccnc2c1 [Compound 22] .
Response line: < 7.30

Prompt line: Recall and state the measured pIC50 for O=C1NC(NC23CC4CC(CC2C4)C3)=N/C1=C\c1ccc2ncccc2c1 [Compound 48] .
Response line: 8.00 to 8.30

Prompt line: Read off the recorded pIC50 for O=C1NC(NC2CCCCOC2)=N/C1=C\c1ccc2nccnc2c1 (racemic) [Compound 41]
Response line: < 7.30

Prompt line: Let me know recorded pIC50 for O=C1NC(NC23CC4CC(CC(C4)C2)C3)=N/C1=C\c1ccc2ncccc2c1 [Compound 49] , thanks.
Response line: 7.60 to 8.00

Prompt line: Give a short answer stating reported pIC50 for O=C1NC(NC2COCCOC2)=N/C1=C\c1ccc2nccnc2c1 [Compound 42] .
Response line: < 7.30

Prompt line: Give a short answer stating reported pIC50 for O=C1NC(N[C@@H]2CCCOC2)=N/C1=C\c1ccc2ncccc2c1 [Compound 56] .
Response line: < 7.30

Prompt line: Entry O=C1NC(NCC2CCCCC2)=N/C1=C\c1ccc2cnccc2c1 [Compound 58] needs its pIC50 filled in; supply it.
Response line: < 7.30

###

Molecular target: CLK2 (Homo sapiens)
Construct: GST-fusion or His-tag (not specified per kinase)
Sequence (P49760 whole entry, the tested form may be a part): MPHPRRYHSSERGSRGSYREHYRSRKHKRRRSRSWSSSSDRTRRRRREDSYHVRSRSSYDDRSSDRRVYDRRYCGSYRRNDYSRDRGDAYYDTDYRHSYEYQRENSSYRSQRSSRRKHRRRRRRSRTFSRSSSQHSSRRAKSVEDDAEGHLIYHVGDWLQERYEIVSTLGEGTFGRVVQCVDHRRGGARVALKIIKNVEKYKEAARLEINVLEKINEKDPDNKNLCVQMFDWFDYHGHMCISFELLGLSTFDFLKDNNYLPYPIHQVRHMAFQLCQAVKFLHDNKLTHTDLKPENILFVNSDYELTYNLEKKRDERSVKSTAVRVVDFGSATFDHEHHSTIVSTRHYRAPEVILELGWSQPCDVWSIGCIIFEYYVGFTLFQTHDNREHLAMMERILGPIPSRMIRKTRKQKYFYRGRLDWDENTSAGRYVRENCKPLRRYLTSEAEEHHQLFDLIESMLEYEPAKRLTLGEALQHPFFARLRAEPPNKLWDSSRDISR
Test: Radiometric protein kinase assay (33PanQinase Activity Assay), CLK2
Conditions: read-out: IC50 on CLK2 (most potent CLK2 inhibitors)
pIC50: −log10 of the molar value.
RECORDED ENDPOINT: pIC50

Prompt line: Specify measured pIC50 for O=C1NC(NC23CC4CC(CC(C4)C2)C3)=N/C1=C\c1ccc2ncccc2n1 .
Response line: ≥ 7.00

Prompt line: Supply recorded pIC50 for O=C1NC(NC23CC4CC(CC(O)(C4)C2)C3)=N/C1=C\c1ccc2ncccc2c1 here.
Response line: ≥ 7.00

Prompt line: Given the molecule O=C1NC(NC23CC4CC(CC(C4)C2)C3)=N/C1=C\c1ccc2nccnc2c1 , write its reported pIC50.
Response line: ≥ 7.00

Prompt line: Note pIC50 for the molecule shown: COC[C@H](NC1=N/C(=C\c2ccc3ncncc3c2)C(=O)N1)c1ccccc1
Response line: ≥ 7.00

Prompt line: // fetch pIC50 given entry O=C1NC(NC23CC4CC(CC(F)(C4)C2)C3)=N/C1=C\c1ccc2nccnc2c1
Response line: ≥ 7.00

Prompt line: For the molecule O=C1NC(NC23CC4CC(CC(C4)C2)C3)=N/C1=C\c1ccc2cnccc2c1 , report pIC50.
Response line: ≥ 7.00

Prompt line: Determine its reported pIC50: COC12CC3CC(CC(NC4=N/C(=C\c5ccc6nccnc6c5)C(=O)N4)(C3)C1)C2
Response line: ≥ 7.00

Prompt line: Give pIC50 for O=C1NC(NC23CC4CC(CC(C4)C2)C3)=N/C1=C\c1ccc2ncccc2c1
Response line: ≥ 7.00

###

Biological target: DYRK2 (Homo sapiens, UniProt Q92630)
Construct: GST-fusion or His-tag (not specified per kinase)
Sequence (Q92630 whole entry, the tested form may be a part): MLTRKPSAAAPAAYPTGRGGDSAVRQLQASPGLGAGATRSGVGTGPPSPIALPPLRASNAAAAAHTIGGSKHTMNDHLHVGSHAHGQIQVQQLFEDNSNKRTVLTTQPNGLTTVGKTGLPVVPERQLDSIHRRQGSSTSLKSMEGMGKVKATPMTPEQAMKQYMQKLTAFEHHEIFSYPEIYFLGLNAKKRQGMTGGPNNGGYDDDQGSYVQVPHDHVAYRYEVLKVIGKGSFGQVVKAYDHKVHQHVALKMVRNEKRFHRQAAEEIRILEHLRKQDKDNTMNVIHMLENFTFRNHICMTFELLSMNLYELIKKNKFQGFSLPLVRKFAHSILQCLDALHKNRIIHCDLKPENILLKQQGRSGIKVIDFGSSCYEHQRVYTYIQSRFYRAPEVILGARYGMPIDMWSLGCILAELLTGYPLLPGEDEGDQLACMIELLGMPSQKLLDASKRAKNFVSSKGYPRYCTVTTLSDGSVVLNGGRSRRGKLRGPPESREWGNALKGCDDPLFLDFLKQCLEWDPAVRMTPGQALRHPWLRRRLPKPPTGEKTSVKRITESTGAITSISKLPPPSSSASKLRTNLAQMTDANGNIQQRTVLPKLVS
Experiment: Radiometric protein kinase assay (33PanQinase Activity Assay), DYRK2
Conditions: read-out: IC50 on DYRK2 (most potent DYRK2 inhibitors)
RECORDED ENDPOINT: IC50

Prompt line: // fetch IC50 given entry O=C1NC(NC23CC4CC(CC2C4)C3)=N/C1=C\c1ccc2ncccc2c1
Response line: ≤ 250 nM

Prompt line: Given the compound COC12CC3CC(CC(NC4=N/C(=C\c5ccc6nccnc6c5)C(=O)N4)(C3)C1)C2 , write its reported IC50.
Response line: ≤ 250 nM

Prompt line: Provide IC50 value for the following compound: COC[C@H](NC1=N/C(=C\c2ccc3ncncc3c2)C(=O)N1)c1ccccc1
Response line: ≤ 250 nM

Prompt line: Please look at this compound and report its IC50: O=C1NC(NC23CC4CC(CC2C4)C3)=N/C1=C\c1ccc2nccnc2c1
Response line: ≤ 250 nM

Prompt line: Supply reported IC50 belonging to this compound: O=C1NC(NC23CC4CC(CC(F)(C4)C2)C3)=N/C1=C\c1ccc2nccnc2c1
Response line: ≤ 250 nM

Prompt line: Could you please provide reported IC50 for O=C1NC(NC23CC4CC(CC(O)(C4)C2)C3)=N/C1=C\c1ccc2ncccc2c1 ? Thanks!
Response line: ≤ 250 nM

Prompt line: Kindly indicate its recorded IC50. Item: CN1C(=O)/C(=C/c2ccc3cnccc3c2)N=C1NC1CCCCCC1
Response line: ≤ 250 nM

###

Target: DYRK1A (Homo sapiens, UniProt Q13627)
Construct: GST-fusion or His-tag (not specified per kinase); purchased ProQinase GmbH; host or cells: Sf9 insect cells or E. coli (not specified per kinase)
Experiment: Radiometric protein kinase assay (33PanQinase Activity Assay), DYRK1A
Type: biochemical
Settings: class by IC50 on DYRK1A, from dose-response curves; read-out: Potency Class DYRK1A
Record form. Attribute: IC50. Fill in for each entry.

Prompt line: Using DYRK1A (Homo sapiens, UniProt Q13627) as the test system, report measured IC50 of CC(C)C[C@H](CF)NC1=N/C(=C\c2ccc3nccnc3c2)C(=O)N1 [Compound 14] .
Response line: 10 to 25 nM

Prompt line: Provide DYRK1A (Homo sapiens, UniProt Q13627) IC50 reading for CC1(C)CCC(NC2=N/C(=C\c3ccc4nccnc4c3)C(=O)N2)CO1 (racemic) [Compound 36] .
Response line: > 50 nM

Prompt line: Report IC50 on DYRK1A (Homo sapiens, UniProt Q13627) for this entry: O=C1NC(NCc2ccccc2)=N/C1=C\c1ccc2nccnc2c1 [Compound 21]
Response line: > 50 nM

Prompt line: State IC50 (DYRK1A (Homo sapiens, UniProt Q13627)) of O=C1NC(NC23CC4CC(CC(C4)C2)C3)=N/C1=C\c1ccc2nccnc2c1 [Compound 17] .
Response line: 10 to 25 nM

Prompt line: Enter IC50 (test system DYRK1A (Homo sapiens, UniProt Q13627)) for CC(C)C[C@@H](CF)NC1=N/C(=C\c2ccc3nccnc3c2)C(=O)N1 [Compound 15]
Response line: > 50 nM

Prompt line: Please tell me the measured IC50 for O=C1NC(NCC2CCCCC2)=N/C1=C\c1ccc2nccnc2c1 [Compound 3] ; system: DYRK1A (Homo sapiens, UniProt Q13627).
Response line: > 50 nM

Prompt line: With DYRK1A (Homo sapiens, UniProt Q13627) as the test system, provide measured IC50 for this molecule: COC[C@H](NC1=N/C(=C\c2ccc3ncncc3c2)C(=O)N1)c1ccccc1 [Compound 69]
Response line: < 5 nM

Prompt line: Please indicate recorded IC50 of CN1C(=O)/C(=C/c2ccc3ncncc3c2)N=C1NC1CCCCCC1 [Compound 89] measured with DYRK1A (Homo sapiens, UniProt Q13627).
Response line: > 50 nM

Prompt line: Fill in IC50 for COC12CC3CC(CC(NC4=N/C(=C\c5ccc6nccnc6c5)C(=O)N4)(C3)C1)C2 [Compound 19] tested with DYRK1A (Homo sapiens, UniProt Q13627).
Response line: < 5 nM

Prompt line: GET IC50 where system = DYRK1A (Homo sapiens, UniProt Q13627) and item = O=C1NC(NCc2ccccc2)=N/C1=C\c1ccc2cnccc2c1 [Compound 62]
Response line: > 50 nM

Prompt line: State IC50 on DYRK1A (Homo sapiens, UniProt Q13627). Entry: O=C1NC(N[C@@H]2CCOC2)=N/C1=C\c1ccc2ncccc2c1 [Compound 55]
Response line: > 50 nM

Prompt line: With DYRK1A (Homo sapiens, UniProt Q13627) as the test system, provide measured IC50 for this molecule: CN1CCN(c2ccc(NC3=N/C(=C\c4ccc5nccnc5c4)C(=O)N3)cc2)CC1 [Compound 33]
Response line: 25 to 50 nM

Prompt line: Tell me IC50 of COC[C@H](NC1=N/C(=C\c2ccc3nnccc3c2)C(=O)N1)c1ccccc1 [Compound 72] when tested on DYRK1A (Homo sapiens, UniProt Q13627).
Response line: > 50 nM

Prompt line: Name the recorded IC50 of O=C1NC(NCc2ccccc2)=N/C1=C\c1ccc2ncccc2c1 [Compound 51] , assay system DYRK1A (Homo sapiens, UniProt Q13627).
Response line: > 50 nM

Prompt line: Answer with IC50 of O=C1NC(NC23CC4CC(CC(F)(C4)C2)C3)=N/C1=C\c1ccc2nccnc2c1 [Compound 20] measured for DYRK1A (Homo sapiens, UniProt Q13627).
Response line: < 5 nM

Prompt line: Report IC50 on DYRK1A (Homo sapiens, UniProt Q13627) for this entry: O=C1NC(NCC2CCCCC2)=N/C1=C\c1ccc2ncccc2c1 [Compound 45]
Response line: > 50 nM

Prompt line: Report the value of IC50 obtained on DYRK1A (Homo sapiens, UniProt Q13627) for O=C1NC(NCC2CCOCC2)=N/C1=C\c1ccc2nccnc2c1 [Compound 32] .
Response line: > 50 nM

Prompt line: Provide IC50, tested on DYRK1A (Homo sapiens, UniProt Q13627), for O=C1NC(Nc2ccccn2)=N/C1=C\c1ccc2nccnc2c1 [Compound 35] .
Response line: > 50 nM

Prompt line: Please indicate recorded IC50 of O=C1NC(N[C@@H]2COCC[C@H]2O)=N/C1=C\c1ccc2nccnc2c1 [Compound 40] measured with DYRK1A (Homo sapiens, UniProt Q13627).
Response line: > 50 nM

Prompt line: Look up DYRK1A (Homo sapiens, UniProt Q13627) data: IC50 of CO[C@@H]1CCC[C@H]1NC1=N/C(=C\c2ccc3nccnc3c2)C(=O)N1 [Compound 4] , then report it.
Response line: > 50 nM
